Test: in vitro
Format: in vitro ADME
Settings: human, Caco-2
Could you please classify the records by Papp A→B at 90 min using these ranges: A = under 1 ×10⁻⁶ cm/s, B = from 1 ×10⁻⁶ cm/s up to 9 ×10⁻⁶ cm/s, C = 9 ×10⁻⁶ cm/s and over

[
  {
    "SMILES_REPR": "CCCC(=O)Nc1ncnn2c([C@]3(C#N)O[C@H](COC(=O)CC4(N)CCCCC4)[C@@H](O)[C@H]3O)ccc12",
    "CLASS_NAME": "C"
  },
  {
    "SMILES_REPR": "N#C[C@@]1(c2ccc3c(N)ncnn23)O[C@H](COC(=O)CC2(N)CCCCC2)[C@@H](OC(=O)CC2CCCCC2)[C@H]1O",
    "CLASS_NAME": "B"
  },
  {
    "SMILES_REPR": "CC(C)(C(=O)OC[C@H]1O[C@@](C#N)(c2ccc3c(N)ncnn23)[C@H](O)[C@@H]1O)C1CCCCC1",
    "CLASS_NAME": "C"
  },
  {
    "SMILES_REPR": "N#C[C@@]1(c2ccc3c(N)ncnn23)O[C@H](COC(=O)CC2CCS(=O)(=O)CC2)[C@@H](O)[C@H]1O",
    "CLASS_NAME": "A"
  },
  {
    "SMILES_REPR": "C[C@@H](C(=O)OC[C@H]1O[C@@](C#N)(c2ccc3c(N)ncnn23)[C@H](O)[C@@H]1O)C1CCCCC1",
    "CLASS_NAME": "C"
  },
  {
    "SMILES_REPR": "CC(C)CC(=O)N[C@H](C(=O)OC[C@H]1O[C@@](C#N)(c2ccc3c(N)ncnn23)[C@H](O)[C@@H]1O)C(C)C",
    "CLASS_NAME": "B"
  },
  {
    "SMILES_REPR": "C[C@H](C(=O)OC[C@H]1O[C@@](C#N)(c2ccc3c(N)ncnn23)[C@H](O)[C@@H]1O)C1CCCCC1",
    "CLASS_NAME": "C"
  },
  {
    "SMILES_REPR": "CC(=O)O[C@H]1[C@@H](O)[C@](C#N)(c2ccc3c(N)ncnn23)O[C@@H]1COC(=O)[C@@H](N)C(C)C",
    "CLASS_NAME": "A"
  },
  {
    "SMILES_REPR": "CC(=O)OC[C@H]1O[C@@](C#N)(c2ccc3c(N)ncnn23)[C@H](O)[C@@H]1OC(=O)CC(C)C",
    "CLASS_NAME": "B"
  },
  {
    "SMILES_REPR": "CNc1nc(N)nc2c1ncn2[C@@H]1O[C@H](COC(=O)CC2CCCCC2)[C@@H](OC(C)=O)[C@@]1(C)F",
    "CLASS_NAME": "C"
  },
  {
    "SMILES_REPR": "CS(=O)(=O)N1CCC(CC(=O)OC[C@H]2O[C@@](C#N)(c3ccc4c(N)ncnn34)[C@H](O)[C@@H]2O)CC1",
    "CLASS_NAME": "A"
  },
  {
    "SMILES_REPR": "CC(C)(C)C(=O)OCOC(=O)Nc1ncnn2c([C@]3(C#N)O[C@H](COC(=O)CC4(N)CCCCC4)[C@@H](O)[C@H]3O)ccc12",
    "CLASS_NAME": "B"
  },
  {
    "SMILES_REPR": "CC(C)CC(=O)OC[C@H]1O[C@@](C#N)(c2ccc3c(NC(=O)c4ccccc4)ncnn23)[C@H](O)[C@@H]1O",
    "CLASS_NAME": "B"
  }
]

This collection of values is drawn from patent US12102648B2.
